Numbers sourced from patent US20260092071A1.

Biological target: SMARCA2 (Homo sapiens)
Assay: HiBiT assay for protein degradation, Hela SMARCA2-HiBiT cells (A series)
Format: cell-based
Design: Hela cells were genetically modified via CRISPR/Cas9 to fuse HiBiT to the carboxy terminus of SMARCA2; host or cells: HeLa (CRISPR/Cas9 HiBiT knock-in)
Conditions: read-out: SMARC A2 Hela HiBit DC50; Hela SMARCA2-HiBiT cells, 24 hours treatment
Parameter: DC50. Scope: all listed entries.

Example entries and their recorded answers appear below.
{"COMPOUND": "Cc1ncsc1-c1ccc([C@H](CN2CCOCC2)NC(=O)[C@@H]2C[C@@H](O)CN2C(=O)[C@@H](n2cc([C@H]3CC[C@H](CN4CCC(c5ccc6c(n5)-n5c(nc(=O)c7c(Cl)cccc75)C65CCCCC5)CC4)CC3)nn2)C(C)(C)C)cc1 [Compound A77]", "DC50": "10 to 100 nM"}
{"COMPOUND": "Cc1ncsc1-c1ccc([C@H](CN2CCOCC2)NC(=O)[C@@H]2C[C@@H](O)CN2C(=O)[C@@H](n2cc([C@H]3CC[C@H](CN4CCC(c5ccc6c(c5)-n5c(nc(=O)c7c(Br)cccc75)C65CCCCC5)CC4)CC3)nn2)C(C)(C)C)cc1 [Compound A69]", "DC50": "< 100 nM"}
{"COMPOUND": "Cc1ncsc1-c1ccc([C@H](CCN2CCOCC2)NC(=O)[C@@H]2C[C@@H](O)CN2C(=O)[C@@H](n2cc([C@H]3CC[C@H](CN4CCC(c5ccc6c(c5)-n5c(nc(=O)c7c(Cl)cccc75)C65CCCCC5)CC4)CC3)nn2)C(C)(C)C)cc1 [Compound A81]", "DC50": "< 10 nM"}
{"COMPOUND": "Cc1ncsc1-c1ccc([C@H](CCN2CC(C)(F)C2)NC(=O)[C@@H]2C[C@@H](O)CN2C(=O)[C@@H](n2cc([C@H]3CC[C@H](CN4CCC(c5ccc6c(c5)-n5c(nc(=O)c7c(Cl)cccc75)C65CCCCC5)CC4)CC3)nn2)C(C)(C)C)cc1 [Compound A79]", "DC50": "< 10 nM"}
{"COMPOUND": "Cc1ncsc1-c1ccc([C@H](CN2CCOCC2)NC(=O)[C@@H]2C[C@@H](O)CN2C(=O)[C@@H](n2cc(C3CCN(CC4CCN(c5ccc6c(c5)-n5c(nc(=O)c7c(Cl)cccc75)C65CCCCC5)CC4)CC3)nn2)C(C)(C)C)cc1 [Compound A168]", "DC50": "> 1000 nM"}

Could you now look at the following compound, please?
Entry Cc1ncsc1-c1ccc([C@H](C)NC(=O)[C@@H]2C[C@@H](O)CN2C(=O)[C@@H](NC(=O)[C@H]2CC[C@H](CN3CCC(c4ccc5c(n4)-n4c(nc(=O)c6c(Br)cccc64)C54CCCCC4)CC3)CC2)C(C)(C)C)cc1 [Compound A51] , tested on SMARCA2 (Homo sapiens), has a reported DC50 of 501 to 1000 nM

----------
Molecular target: SMARCA2 (Homo sapiens, UniProt P51531)
Sequence (P51531 whole entry): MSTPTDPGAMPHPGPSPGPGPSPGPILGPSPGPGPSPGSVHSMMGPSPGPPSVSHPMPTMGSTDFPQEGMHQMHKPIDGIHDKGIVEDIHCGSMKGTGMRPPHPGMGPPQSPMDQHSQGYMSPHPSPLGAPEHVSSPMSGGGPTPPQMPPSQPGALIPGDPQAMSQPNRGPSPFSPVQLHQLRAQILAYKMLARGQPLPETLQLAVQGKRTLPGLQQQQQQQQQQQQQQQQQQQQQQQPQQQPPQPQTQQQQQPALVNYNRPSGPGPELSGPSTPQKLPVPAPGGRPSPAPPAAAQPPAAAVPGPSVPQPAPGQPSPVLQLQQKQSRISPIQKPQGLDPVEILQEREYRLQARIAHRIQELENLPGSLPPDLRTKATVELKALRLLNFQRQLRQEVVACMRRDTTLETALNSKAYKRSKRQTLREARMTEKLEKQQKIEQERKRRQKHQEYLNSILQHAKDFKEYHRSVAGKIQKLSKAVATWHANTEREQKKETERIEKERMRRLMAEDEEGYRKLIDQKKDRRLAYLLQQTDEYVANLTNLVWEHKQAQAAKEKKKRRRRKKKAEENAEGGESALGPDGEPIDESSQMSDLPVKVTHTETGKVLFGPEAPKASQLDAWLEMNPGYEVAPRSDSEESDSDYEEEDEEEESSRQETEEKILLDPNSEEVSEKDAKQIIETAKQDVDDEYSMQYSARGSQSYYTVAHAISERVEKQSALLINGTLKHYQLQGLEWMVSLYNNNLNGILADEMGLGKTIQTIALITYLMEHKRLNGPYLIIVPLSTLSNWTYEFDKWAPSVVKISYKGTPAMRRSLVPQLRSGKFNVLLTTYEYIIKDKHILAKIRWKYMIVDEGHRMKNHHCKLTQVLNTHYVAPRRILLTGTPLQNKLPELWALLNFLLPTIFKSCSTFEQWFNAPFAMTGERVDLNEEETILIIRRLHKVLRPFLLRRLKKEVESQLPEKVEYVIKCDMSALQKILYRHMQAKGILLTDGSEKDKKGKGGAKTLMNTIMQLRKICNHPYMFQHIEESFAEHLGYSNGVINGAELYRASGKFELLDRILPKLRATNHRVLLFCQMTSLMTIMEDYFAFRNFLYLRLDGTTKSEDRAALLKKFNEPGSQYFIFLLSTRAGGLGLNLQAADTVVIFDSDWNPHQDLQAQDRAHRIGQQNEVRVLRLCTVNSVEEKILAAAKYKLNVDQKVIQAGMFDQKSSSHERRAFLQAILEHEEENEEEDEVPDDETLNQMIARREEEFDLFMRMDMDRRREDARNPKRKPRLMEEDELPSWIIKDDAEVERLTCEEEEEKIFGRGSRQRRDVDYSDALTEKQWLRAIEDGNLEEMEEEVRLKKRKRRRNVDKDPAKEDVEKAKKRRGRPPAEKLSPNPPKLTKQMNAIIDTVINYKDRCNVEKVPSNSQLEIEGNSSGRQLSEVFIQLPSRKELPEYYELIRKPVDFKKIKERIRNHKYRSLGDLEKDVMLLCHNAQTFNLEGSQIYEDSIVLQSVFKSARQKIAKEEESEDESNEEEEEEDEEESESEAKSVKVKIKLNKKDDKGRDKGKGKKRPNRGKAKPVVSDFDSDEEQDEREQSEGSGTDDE
Assay: HiBit assay in engineered HT1080 CRISPR knock-in cell, 6 hrs (B series), SMARCA2
Format: cell-based
Conditions: HT1080 CRISPR knock-in cells, 6 hrs incubation; read-out: SMARC A2 HT1080 HiBit DC50
Parameter: DC50. Scope: all listed entries.

Example entries and their recorded answers appear below.
{"COMPOUND": "Cc1ncsc1-c1ccc([C@H](C)NC(=O)[C@@H]2C[C@@H](O)CN2C(=O)C(c2cc(N3CCC(c4ccc5c(c4)C(C)(C)c4nc(=O)c6c(Cl)cccc6n4-5)CC3)no2)C(C)C)cc1 (stereo partly drawn) [Compound B42]", "TARGET DESC": "SMARCA2 (Homo sapiens, UniProt P51531)", "DC50": "< 100 nM"}
{"COMPOUND": "Cc1cc(C(C(=O)N2C[C@H](O)C[C@H]2C(=O)N[C@@H](CCN2CCC(c3cccc4c3C(C)(C)c3nc(=O)c5c(Cl)cccc5n3-4)CC2)c2ccc(-c3scnc3C)cc2)C(C)C)on1 (stereo partly drawn) [Compound B152]", "TARGET DESC": "SMARCA2 (Homo sapiens, UniProt P51531)", "DC50": "< 100 nM"}

Could you now look at the following compound, please?
The reported value for Cc1ncsc1-c1ccc([C@H](C)NC(=O)[C@@H]2C[C@@H](O)CN2C(=O)[C@@H](c2cc(N3CCC(CN4CCC(c5ccc6c(c5)-n5c(nc(=O)c7c(Cl)cccc75)C6(C)C)CC4)CC3)no2)C(C)C)cc1 [Compound B37] in terms of DC50 is < 100 nM

----------
Target: SMARCA4 (Homo sapiens, UniProt P51532)
Sequence (P51532 whole entry): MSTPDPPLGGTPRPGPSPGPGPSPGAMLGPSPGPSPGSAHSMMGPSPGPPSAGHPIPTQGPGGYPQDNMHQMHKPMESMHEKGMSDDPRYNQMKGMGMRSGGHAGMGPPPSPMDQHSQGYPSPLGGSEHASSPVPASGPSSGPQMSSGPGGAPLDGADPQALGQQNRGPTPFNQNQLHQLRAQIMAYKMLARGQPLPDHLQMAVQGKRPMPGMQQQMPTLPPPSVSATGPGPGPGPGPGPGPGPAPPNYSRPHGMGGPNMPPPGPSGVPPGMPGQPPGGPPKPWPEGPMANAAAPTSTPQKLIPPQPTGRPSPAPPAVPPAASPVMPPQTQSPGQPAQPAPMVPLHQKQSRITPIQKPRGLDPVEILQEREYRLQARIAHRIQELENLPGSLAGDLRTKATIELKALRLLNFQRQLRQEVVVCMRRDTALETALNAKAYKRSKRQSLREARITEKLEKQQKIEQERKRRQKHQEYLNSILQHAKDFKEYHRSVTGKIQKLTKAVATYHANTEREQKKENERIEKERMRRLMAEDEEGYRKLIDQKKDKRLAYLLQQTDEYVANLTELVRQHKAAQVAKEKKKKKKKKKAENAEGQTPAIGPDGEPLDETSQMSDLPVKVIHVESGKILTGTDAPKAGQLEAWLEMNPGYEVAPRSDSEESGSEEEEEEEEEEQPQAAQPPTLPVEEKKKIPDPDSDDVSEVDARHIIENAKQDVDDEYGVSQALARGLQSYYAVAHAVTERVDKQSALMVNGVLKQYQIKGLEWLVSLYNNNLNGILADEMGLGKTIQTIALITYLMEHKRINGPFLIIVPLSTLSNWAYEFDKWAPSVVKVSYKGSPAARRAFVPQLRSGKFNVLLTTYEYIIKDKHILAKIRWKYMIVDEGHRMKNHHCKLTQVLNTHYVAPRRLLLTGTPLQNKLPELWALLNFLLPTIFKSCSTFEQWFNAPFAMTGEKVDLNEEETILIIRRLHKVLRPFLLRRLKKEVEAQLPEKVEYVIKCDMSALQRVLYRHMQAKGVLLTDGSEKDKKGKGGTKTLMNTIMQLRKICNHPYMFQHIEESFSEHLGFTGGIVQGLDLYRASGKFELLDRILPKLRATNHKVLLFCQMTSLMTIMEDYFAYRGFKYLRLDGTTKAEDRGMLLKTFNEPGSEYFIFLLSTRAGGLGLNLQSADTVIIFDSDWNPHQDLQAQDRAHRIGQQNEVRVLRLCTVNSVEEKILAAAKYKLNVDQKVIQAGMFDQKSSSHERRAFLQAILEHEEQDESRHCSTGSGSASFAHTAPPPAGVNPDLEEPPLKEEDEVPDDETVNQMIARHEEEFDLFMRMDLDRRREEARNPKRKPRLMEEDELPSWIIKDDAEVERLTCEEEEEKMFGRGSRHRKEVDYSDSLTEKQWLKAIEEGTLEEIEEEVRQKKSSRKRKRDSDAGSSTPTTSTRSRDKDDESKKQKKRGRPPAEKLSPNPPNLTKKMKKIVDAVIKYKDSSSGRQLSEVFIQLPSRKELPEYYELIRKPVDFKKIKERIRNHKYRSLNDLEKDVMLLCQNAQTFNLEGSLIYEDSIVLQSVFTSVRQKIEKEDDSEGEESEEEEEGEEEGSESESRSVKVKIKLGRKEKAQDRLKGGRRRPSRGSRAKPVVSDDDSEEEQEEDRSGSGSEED
Test: HiBit assay in engineered HT1080 CRISPR knock-in cell, 6 hrs (B series), SMARCA4
Format: cell-based
Settings: HT1080 CRISPR knock-in cells, 6 hrs incubation; read-out: SMARC A4 HT1080 HiBit DC50
REPORTED PROPERTY: DC50

{"MOLECULE": "C[C@H](NC(=O)[C@@H]1C[C@@H](O)CN1C(=O)[C@@H](n1cc([C@H]2CC[C@H](CN3CCC(c4ccc5c(c4)-n4c(nc(=O)c6c(Cl)cccc64)C5(C)C)CC3)CC2)nn1)C(C)(C)C)c1ccc(-c2scnc2C#CCN2CCOCC2)cc1", "TARGET DESC": "SMARCA4 (Homo sapiens, UniProt P51532)", "DC50": "< 0.1 µM"}
{"MOLECULE": "Cc1ncsc1-c1ccc(CNC(=O)[C@@H]2C[C@@H](O)CN2C(=O)[C@@H](NC(=O)C2(F)CC2)C(C)(C)C)c(OCCCN2CCC(c3ccc4c(c3)-n3c(nc(=O)c5c(Cl)cccc53)C4(C)C)CC2)c1", "TARGET DESC": "SMARCA4 (Homo sapiens, UniProt P51532)", "DC50": "< 0.1 µM"}
{"MOLECULE": "Cc1ncsc1-c1ccc([C@H](C)NC(=O)[C@@H]2C[C@@H](O)CN2C(=O)[C@@H](NC(=O)C2CCC(CN3CCC(c4ccc5c(c4)C(C)(C(F)(F)F)c4nc(=O)c6c(Cl)cccc6n4-5)CC3)CC2)C(C)(C)C)cc1 (some centres unmarked)", "TARGET DESC": "SMARCA4 (Homo sapiens, UniProt P51532)", "DC50": "0.1 to 0.5 µM"}
{"MOLECULE": "Cc1ncsc1-c1ccc([C@H](C)NC(=O)[C@@H]2C[C@@H](O)CN2C(=O)[C@@H](NC(=O)CCn2cc(-c3ccc4c(c3)-n3c(nc(=O)c5c(Cl)cccc53)C4(C)C)cn2)C(C)(C)C)cc1", "TARGET DESC": "SMARCA4 (Homo sapiens, UniProt P51532)", "DC50": "> 1 µM"}
{"MOLECULE": "Cc1nc(C)c(-c2ccc([C@H](C)NC(=O)[C@@H]3C[C@@H](O)CN3C(=O)[C@@H](n3cc([C@H]4CC[C@H](CN5CCN(c6ccc7c(c6)-n6c(nc(=O)c8c(Cl)cccc86)C7(C)C)CC5)CC4)nn3)C(C)(C)C)cc2)s1", "TARGET DESC": "SMARCA4 (Homo sapiens, UniProt P51532)", "DC50": "< 0.1 µM"}
{"MOLECULE": "CC#Cc1ccc([C@H](C)NC(=O)[C@@H]2C[C@@H](O)CN2C(=O)[C@H](C(C)C)n2cc([C@H]3CC[C@H](CN4CCC(c5ccc6c(c5)-n5c(nc(=O)c7c(Cl)cccc75)C6(C)C)CC4)CC3)nn2)cc1", "TARGET DESC": "SMARCA4 (Homo sapiens, UniProt P51532)", "DC50": "< 0.1 µM"}
{"MOLECULE": "Cc1ncsc1-c1ccc([C@H](C)NC(=O)[C@@H]2C[C@@H](O)CN2C(=O)[C@@H](NC(=O)C23CC(CN4CCC(c5ccc6c(c5)C(C)(C)c5nc(=O)c7c(Cl)cccc7n5-6)CC4)(C2)C3)C(C)(C)C)cc1", "TARGET DESC": "SMARCA4 (Homo sapiens, UniProt P51532)", "DC50": "< 0.1 µM"}

Could you now look at the following molecule, please?
The reported value for Cc1ncsc1-c1ccc([C@H](C)NC(=O)[C@@H]2C[C@@H](O)CN2C(=O)[C@@H](c2cc(OC3CCC(Cn4cc(-c5ccc6c(c5)-n5c(nc(=O)c7c(Cl)cccc75)C6(C)C)cn4)CC3)no2)C(C)C)cc1 (some centres unmarked) [Compound B95] in terms of DC50 is > 1 µM

----------
Target: SMARCA2 (Homo sapiens, UniProt P51531)
Assay: HiBiT assay for protein degradation, Hela SMARCA2-HiBiT cells (A series);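 for SMARC A2 Hela HiBit Dmax (%): 24 h compound treatment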
Type: cell-based
Parameters: Hela cells were genetically modified via CRISPR/Cas9 to fuse HiBiT to the carboxy terminus of SMARCA2; host or cells: HeLa (CRISPR/Cas9 HiBiT knock-in)
Conditions: Hela SMARCA2-HiBiT cells, 24 hours treatment; read-out: SMARC A2 Hela HiBit Dmax (%)
Parameter: Dmax. Scope: all listed entries.

Example entries and their recorded answers appear below.
{"COMPOUND": "Cc1ncsc1-c1ccc([C@H](C)NC(=O)[C@@H]2C[C@@H](O)CN2C(=O)[C@@H](n2cc([C@H]3CC[C@H](CN4CCC(c5cnc6c(c5)-n5c(nc(=O)c7c(Br)cccc75)C65CCCCC5)CC4)CC3)nn2)C(C)(C)C)cc1 [Compound A76]", "Dmax": "> 90%"}
{"COMPOUND": "Cc1ncsc1-c1ccc([C@H](CNC(=O)[C@H]2CC[C@H](CN3CCC(c4ccc5c(c4)-n4c(nc(=O)c6c(Br)cccc64)C54CCCCC4)CC3)CC2)NC(=O)[C@@H]2C[C@@H](O)CN2C(=O)[C@@H](n2cc(C3CC3)nn2)C(C)(C)C)cc1 [Compound A116]", "Dmax": "< 50%"}
{"COMPOUND": "Cc1ccncc1-c1ccc([C@H](CN2CCOCC2)NC(=O)[C@@H]2C[C@@H](O)CN2C(=O)[C@@H](n2cc([C@H]3CC[C@H](CN4CCC(c5ccc6c(c5)-n5c(nc(=O)c7c(Cl)cccc75)C65CCCCC5)CC4)CC3)nn2)C(C)(C)C)cc1 [Compound A175]", "Dmax": "> 90%"}
{"COMPOUND": "Cc1ncsc1-c1ccc([C@H](CN2CCOCC2)NC(=O)[C@@H]2C[C@@H](O)CN2C(=O)[C@H](C2CCCCC2)n2cc([C@H]3CC[C@H](CN4CCC(c5ccc6c(c5)-n5c(nc(=O)c7c(Cl)cccc75)C65CCCCC5)CC4)CC3)nn2)cc1 [Compound A122]", "Dmax": "> 90%"}
{"COMPOUND": "Cc1ncsc1-c1ccc([C@H](CO)NC(=O)[C@@H]2C[C@@H](O)CN2C(=O)[C@H](C2CCCCC2)n2cc([C@H]3CC[C@H](CN4CCC(c5ccc6c(c5)-n5c(nc(=O)c7c(Cl)cccc75)C65CCCCC5)CC4)CC3)nn2)cc1 [Compound A126]", "Dmax": "> 90%"}

The reported value for Cc1ncsc1-c1ccc([C@H](CCCCCN2CCC(c3ccc4c(c3)-n3c(nc(=O)c5c(Br)cccc53)C43CCCCC3)CC2)NC(=O)[C@H]2C[C@H](O)CN2C(=O)[C@@H](n2cc(C3CC3)nn2)C(C)(C)C)cc1 [Compound A36] in terms of Dmax is > 90%

The reported value for Cc1ncsc1-c1ccc([C@H](CN2CCC(C(F)F)CC2)NC(=O)[C@@H]2C[C@@H](O)CN2C(=O)[C@@H](n2cc([C@H]3CC[C@H](CN4CCC(c5ccc6c(c5)-n5c(nc(=O)c7c(Cl)cccc75)C65CCCCC5)CC4)CC3)nn2)C(C)(C)C)cc1 [Compound A84] in terms of Dmax is > 90%

The reported value for Cc1ncsc1-c1ccc([C@H](CN2CCOCC2)NC(=O)[C@@H]2C[C@@H](O)CN2C(=O)[C@@H](n2cc([C@H]3CC[C@H](CN4CCC(c5ncc6c(n5)-n5c(nc(=O)c7c(Br)cccc75)C65CCCCC5)CC4)CC3)nn2)C(C)(C)C)cc1 [Compound A32] in terms of Dmax is < 50%

The reported value for Cc1ncsc1-c1ccc([C@H](CCCCCN2CCC(c3ccc4c(c3)C3(CCCC3)c3nc(=O)c5c(Cl)cccc5n3-4)CC2)NC(=O)[C@@H]2C[C@@H](O)CN2C(=O)[C@@H](NC(=O)C2(F)CC2)C(C)(C)C)cc1 [Compound A2] in terms of Dmax is > 90%

The reported value for Cc1ncsc1-c1ccc([C@H](CN2CCOCC2)NC(=O)[C@@H]2C[C@@H](O)CN2C(=O)[C@H](C(C)C)n2cc([C@H]3CC[C@H](CN4CCC(c5ccc6c(c5)-n5c(nc(=O)c7c(Cl)cccc75)C65CCCCC5)CC4)CC3)nn2)cc1 [Compound A103] in terms of Dmax is > 90%

The reported value for Cc1ncsc1-c1ccc([C@H](CCN2CC(C)(O)C2)NC(=O)[C@@H]2C[C@@H](O)CN2C(=O)[C@@H](n2cc([C@H]3CC[C@H](CN4CCC(c5ccc6c(c5)-n5c(nc(=O)c7c(Cl)cccc75)C65CCCCC5)CC4)CC3)nn2)C(C)(C)C)cc1 [Compound A80] in terms of Dmax is 70 to 90%

The reported value for Cc1ncsc1-c1ccc([C@H](CN2CCS(=O)(=O)CC2)NC(=O)[C@@H]2C[C@@H](O)CN2C(=O)[C@@H](n2cc([C@H]3CC[C@H](CN4CCC(c5ccc6c(c5)-n5c(nc(=O)c7c(Cl)cccc75)C65CCCCC5)CC4)CC3)nn2)C(C)(C)C)cc1 [Compound A72] in terms of Dmax is > 90%

The reported value for Cc1ncsc1-c1ccc([C@H](CN2CCOCC2)NC(=O)[C@@H]2C[C@@H](O)CN2C(=O)[C@@H](n2cc([C@H]3CC[C@H](CN4CCC(c5ccc6c(c5)-n5c(nc(=O)c7c(Cl)cccc75)C6(C)C)CC4)CC3)nn2)C(C)(C)O)cc1 [Compound A159] in terms of Dmax is > 90%

The reported value for Cc1ncsc1-c1ccc([C@H](CCCCCN2CCC(c3ccc4c(n3)-n3c(nc(=O)c5c(Br)cccc53)C43CCCCC3)CC2)NC(=O)[C@H]2C[C@H](O)CN2C(=O)[C@@H](n2cc(C3CC3)nn2)C(C)(C)C)cc1 [Compound A37] in terms of Dmax is > 90%

The reported value for Cc1ncsc1-c1ccc([C@H](Cn2cc(CN3CCC(c4ccc5c(c4)C4(CCCCC4)c4nc(=O)c6c(Br)cccc6n4-5)CC3)nn2)NC(=O)[C@@H]2C[C@@H](O)CN2C(=O)[C@@H](n2cc(C3CC3)nn2)C(C)(C)C)cc1 [Compound A115] in terms of Dmax is 70 to 90%
